target-entity: full-length Ebola GP on pseudotyped lentivirus (Zaire ebolavirus) (UniProt Q05320)
test-method-notes: cell-based or functional assay
observation-type: Ebola GP pseudotyped lentivirus IC50 (nM)
Kindly answer with a numeric value in nM, unit omitted.

Q: # lookup: Ebola GP pseudotyped lentivirus IC50 of mAb114 VH I41P-D42G-A68T-S79Y-I113T IgG (antibody, V domains shown) VH: EVQLVESGGGLIQPGGSLRLSCAASGFALRMYDMHWVRQTPGKRLEWVSAVGPSGDTYYADSVKGRFTVSRENAKNSLYLQMNSLTAGDTAIYYCVRSDRGVAGLFDSWGQGTLVTVSS VL: DIQMTQSPSSLSASVGDRITITCRASQAFDNYVAWYQQRPGKVPKLLISAASALHAGVPSRFSGSGSGTHFTLTISSLQPEDVATYYCQNYNSAPLTFGGGTKVEIK
Result: 1.2

Q: How about this binder: mAb114 VH I41P-D42G-A68T-S79Y-I113T / VL V43A IgG (antibody, V domains shown) VH: EVQLVESGGGLIQPGGSLRLSCAASGFALRMYDMHWVRQTPGKRLEWVSAVGPSGDTYYADSVKGRFTVSRENAKNSLYLQMNSLTAGDTAIYYCVRSDRGVAGLFDSWGQGTLVTVSS VL: DIQMTQSPSSLSASVGDRITITCRASQAFDNYVAWYQQRPGKAPKLLISAASALHAGVPSRFSGSGSGTHFTLTISSLQPEDVATYYCQNYNSAPLTFGGGTKVEIK
Result: 1

Q: How about this binder: mAb114 VH D42G-A68T-S79Y IgG (antibody, V domains shown) VH: EVQLVESGGGLIQPGGSLRLSCAASGFALRMYDMHWVRQTIGKRLEWVSAVGPSGDTYYADSVKGRFTVSRENAKNSLYLQMNSLTAGDTAIYYCVRSDRGVAGLFDSWGQGILVTVSS VL: DIQMTQSPSSLSASVGDRITITCRASQAFDNYVAWYQQRPGKVPKLLISAASALHAGVPSRFSGSGSGTHFTLTISSLQPEDVATYYCQNYNSAPLTFGGGTKVEIK
Result: 1.2

Q: How about this binder: mAb114 VH A68T-E72D-S79Y-I113T / VL V43A IgG (antibody, V domains shown) VH: EVQLVESGGGLIQPGGSLRLSCAASGFALRMYDMHWVRQTIDKRLEWVSAVGPSGDTYYADSVKGRFTVSRDNAKNSLYLQMNSLTAGDTAIYYCVRSDRGVAGLFDSWGQGTLVTVSS VL: DIQMTQSPSSLSASVGDRITITCRASQAFDNYVAWYQQRPGKAPKLLISAASALHAGVPSRFSGSGSGTHFTLTISSLQPEDVATYYCQNYNSAPLTFGGGTKVEIK
Result: 1.2

Q: How about this binder: mAb114 VH A68T-I113T / VL V43A IgG (antibody, V domains shown) VH: EVQLVESGGGLIQPGGSLRLSCAASGFALRMYDMHWVRQTIDKRLEWVSAVGPSGDTYYADSVKGRFTVSRENAKNSLSLQMNSLTAGDTAIYYCVRSDRGVAGLFDSWGQGTLVTVSS VL: DIQMTQSPSSLSASVGDRITITCRASQAFDNYVAWYQQRPGKAPKLLISAASALHAGVPSRFSGSGSGTHFTLTISSLQPEDVATYYCQNYNSAPLTFGGGTKVEIK
Result: 1.1
